# System: Factor XI protein
# Assay Info: Cynomolgus monkeys: plasma Factor XI protein ELISA (Example 30)
# Assay type: in vivo
# Condition: 25 mg/kg s.c.; plasma ELISA; Day 24
In the oligonucleotide strings, read from the 5' end, every base follows the letter of its sugar. An asterisk marks phosphorothioate; unmarked linkages are phosphodiester. Other units and linkages are bracketed, terminal groups are in braces. A string of capitals states the bases alone. e = 2'-O-(2-methoxyethyl) (MOE); [5mC] = 5-methylcytosine; d = 2'-deoxy (DNA)
Classify on Inhibition of Factor XI protein relative to the PBS control using bin 0 (below 20%), bin 1 (20% to below 40%), bin 2 (40% or more)

# Substance, Class Assignment
data = [
    ("449707 (antisense e[5mC]*eA*e[5mC]*eA*dG*dT*dT*dT*d[5mC]*dT*dG*dG*e[5mC]*eA*eG*eG) [compound 449707]", "bin 1"),
    ("416850 (antisense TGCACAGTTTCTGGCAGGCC; 5-10-5 gapmer, wing sugar chemistry not given here, further chemistry not given here) [compound 416850]", "bin 1"),
    ("416858 (antisense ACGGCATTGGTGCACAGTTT; 5-10-5 gapmer, wing sugar chemistry not given here, further chemistry not given here) [compound 416858]", "bin 2"),
    ("449711 (antisense eA*e[5mC]*dA*dG*dT*dT*dT*d[5mC]*dT*dG*dG*d[5mC]*eA*eG) [compound 449711]", "bin 0"),
    ("449709 (antisense eG*e[5mC]*eA*e[5mC]*dA*dG*dT*dT*dT*d[5mC]*dT*dG*dG*d[5mC]*eA*eG*eG*e[5mC]) [compound 449709]", "bin 2"),
    ("445522 (antisense eG*e[5mC]*eA*e[5mC]*eA*dG*dT*dT*dT*d[5mC]*dT*dG*dG*e[5mC]*eA*eG*eG*e[5mC]) [compound 445522]", "bin 2"),
    ("449710 (antisense e[5mC]*eA*e[5mC]*dA*dG*dT*dT*dT*d[5mC]*dT*dG*dG*d[5mC]*eA*eG*eG) [compound 449710]", "bin 0"),
    ("445531 (antisense eG*eG*e[5mC]*eA*eT*dT*dG*dG*dT*dG*d[5mC]*dA*d[5mC]*eA*eG*eT*eT*eT) [compound 445531]", "bin 1"),
    ("449708 (antisense eA*e[5mC]*eA*dG*dT*dT*dT*d[5mC]*dT*dG*dG*e[5mC]*eA*eG) [compound 449708]", "bin 0"),
]
